// endpoint MIC / system Candida glabrata (ATCC 2001)
measuredAttribute: MIC (mg/L)

Example entries and their recorded answers appear below.
{"columns": ["chemSmiles", "unitDescriptor", "MIC"],
 "data": [
  ["O=[N+]([O-])c1cc(Cl)ccc1-c1ccc(C=NNc2nc(-c3ccc(Cl)cc3)cs2)o1", "mg/L", 1000],
  ["O=[N+]([O-])c1ccc(-c2csc(NN=Cc3ccc(-c4ccc(Cl)cc4[N+](=O)[O-])o3)n2)cc1", "mg/L", 1000],
  ["O=[N+]([O-])c1ccc(-c2ccc(C=NNc3nc(-c4ccc(Cl)cc4)cs3)o2)cc1", "mg/L", 500],
  ["O=[N+]([O-])c1ccc(-c2ccc(C=NNc3nc(-c4ccccc4)cs3)o2)cc1", "mg/L", 1000]
]}

I = COc1ccc(-c2csc(NN=Cc3ccc(-c4ccc(Cl)cc4[N+](=O)[O-])o3)n2)cc1
II = O=[N+]([O-])c1cc(Cl)ccc1-c1ccc(C=NNc2nc(-c3ccccc3)cs2)o1
### Prompt Smaller MIC value? Options are I and II Pick one and reply with its label.
### Response I
